# log10(IC50) annotations
Tested on: blood platelets
assay info: Inhibition of platelet aggregation
Type: cell-based
Scale: decimal log of IC50, IC50 in µM.

# input So what does the record say about log10(IC50) for CC(C)N(C(=O)CCCC1CCNCC1)[C@H](CCc1ccccc1)CC(=O)O [(3)] ?
# output -1.00

# input Next entry: Cc1[nH]c2ccccc2c1CCC(CC(=O)O)NC(=O)CNC(=O)CCCC1CCNCC1 (stereo not shown) [(14)]
# output 0.04

# input Also CCCCN(CC(=O)N[C@H](CCc1ccccc1)CC(=O)O)C(=O)CCCC1CCNCC1 [(2)] ?
# output -1.11

# input Also need O=C(O)C[C@@H](CCc1ccccc1)NC(=O)CN(CCc1ccccc1)C(=O)CCCC1CCNCC1 [(4)] , thanks.
# output -1.06

# input Let us now turn to O=C(O)CC(CCCCO)NC(=O)CNC(=O)CCCC1CCNCC1 (stereo not drawn) [(9), Pib-Gly-3-[4-(hydroxy)butyl],β-alanine]
# output 0.57

# input Same again, this time with O=C(O)CC(COc1ccccc1)NC(=O)CNC(=O)CCCC1CCNCC1 (stereo not drawn) [(10), Pib-Gly-3-(phenoxymethyl)β-alanine]
# output 0.32

# input Next up: O=C(O)C[C@H](CCc1c[nH]c2ccccc12)NC(=O)CNC(=O)CCCC1CCNCC1 [(6)]
# output 1.49
